Please use the following boiling point ranges when assigning a class: low: < 100 °C; moderate: ≥ 100 °C and < 200 °C; high: ≥ 200 °C

Data request: Category lookup for the molecule Cc1cc(C)c(N(C)C)c(C)c1
Data returned: high

Data request: Category lookup for the molecule CCc1ccc(CC)c(CC)c1
Data returned: high

Data request: Category lookup for the molecule CCNc1ccc(C)cc1
Data returned: high

###

Known log10 Koc (L/kg) of a selection of compounds
Response field accepts a number only; no unit should be typed.

Please review the following examples before continuing.
>  <Compound>
c1ccc2c(c1)ccc1[nH]c3ccc4ccccc4c3c12

>  <log10 Koc (L/kg)>
6.03

$$$$
>  <Compound>
CCOC(=O)Nc1cccc(OC(=O)Nc2ccccc2)c1

>  <log10 Koc (L/kg)>
3.18

$$$$
>  <Compound>
ClC(Br)Br

>  <log10 Koc (L/kg)>
1.92

$$$$
>  <Compound>
COC(=O)c1ccccc1S(=O)(=O)NC(=O)N(C)c1nc(C)nc(OC)n1

>  <log10 Koc (L/kg)>
1.72

$$$$
>  <Compound>
CCNc1nc(Cl)nc(NC(C)(C)C#N)n1

>  <log10 Koc (L/kg)>
2.28

$$$$
>  <Compound>
CC1OC(C)OC(C)OC(C)O1 (centres undefined)

>  <log10 Koc (L/kg)>
2.38

$$$$

Documented log10 Koc (L/kg) of C=CCOC(Cn1ccnc1)c1ccc(Cl)cc1Cl (centres undefined) : 3.73

Documented log10 Koc (L/kg) of CCOP(=S)(OCC)Oc1ccc(SC)cc1 : 3.18

Documented log10 Koc (L/kg) of CCCCOC(=O)Nc1ccccc1 : 2.26

Documented log10 Koc (L/kg) of CCOC(=O)C(C)OC(=O)c1cc(Oc2ccc(C(F)(F)F)cc2Cl)ccc1[N+](=O)[O-] (centres undefined) : 4

Documented log10 Koc (L/kg) of Clc1ccccc1-c1nnc(-c2ccccc2Cl)nn1 : 4.66

Documented log10 Koc (L/kg) of C#CC(C)(C)NC(=O)c1ccc(Cl)cc1 : 1.9

###

Would you please tag the item MET when its melting point is 100 °C or above, and NOT MET when it is below?

Look over these answered cases.
>  <Molecule>
CN1CCC[C@H]1c1cccnc1

>  <Assigned Category>
NOT MET

$$$$
>  <Molecule>
N#Cc1ccccc1N

>  <Assigned Category>
NOT MET

$$$$
>  <Molecule>
O=C1OC(=O)c2c(Cl)c(Cl)c(Cl)c(Cl)c21

>  <Assigned Category>
MET

$$$$

Data request: Does the reported melting point for Oc1ccccc1 fall at or above the 100 °C mark?
Data returned: NOT MET

Data request: Does the reported melting point for O=[N+]([O-])/N=C1\NCCN1Cc1ccc(Cl)nc1 fall at or above the 100 °C mark?
Data returned: MET

Data request: Does the reported melting point for O=c1ccn([C@@H]2C[C@@H](O)[C@H](CO)O2)c(=O)[nH]1 fall at or above the 100 °C mark?
Data returned: MET

Data request: Does the reported melting point for N#CN fall at or above the 100 °C mark?
Data returned: NOT MET

Data request: Does the reported melting point for C=C(C)[C@@H]1CC[C@]2(CO)CC[C@]3(C)[C@H](CC[C@@H]4[C@@]5(C)CC[C@H](O)C(C)(C)[C@@H]5CC[C@]43C)[C@@H]12 fall at or above the 100 °C mark?
Data returned: MET

Data request: Does the reported melting point for O=S(=O)(O)c1ccccc1 fall at or above the 100 °C mark?
Data returned: NOT MET

Data request: Does the reported melting point for COc1ccccc1N1CCNCC1 fall at or above the 100 °C mark?
Data returned: NOT MET

Data request: Does the reported melting point for CCC(=O)O[C@H]([C@H](C)[C@H]1O[C@@]2(CC[C@@](C)([C@H]3CC[C@@](C)(C4O[C@@H]([C@H]5O[C@@](O)(CO)[C@H](C)C[C@@H]5C)C[C@@H]4C)O3)O2)C[C@H](O)[C@H]1C)[C@@H](C)C(=O)O (some centres not stated) fall at or above the 100 °C mark?
Data returned: MET

Data request: Does the reported melting point for N#CCCS(=O)(=O)O.[Na+] fall at or above the 100 °C mark?
Data returned: MET

These entries and their values trace back to the OPERA property sets (Mansouri et al. 2018).
